# ASSAYED_SYSTEM: Voltage-dependent N-type calcium channel subunit alpha-1B (Homo sapiens, UniProt Q00975)
# Sequence (Q00975 whole entry): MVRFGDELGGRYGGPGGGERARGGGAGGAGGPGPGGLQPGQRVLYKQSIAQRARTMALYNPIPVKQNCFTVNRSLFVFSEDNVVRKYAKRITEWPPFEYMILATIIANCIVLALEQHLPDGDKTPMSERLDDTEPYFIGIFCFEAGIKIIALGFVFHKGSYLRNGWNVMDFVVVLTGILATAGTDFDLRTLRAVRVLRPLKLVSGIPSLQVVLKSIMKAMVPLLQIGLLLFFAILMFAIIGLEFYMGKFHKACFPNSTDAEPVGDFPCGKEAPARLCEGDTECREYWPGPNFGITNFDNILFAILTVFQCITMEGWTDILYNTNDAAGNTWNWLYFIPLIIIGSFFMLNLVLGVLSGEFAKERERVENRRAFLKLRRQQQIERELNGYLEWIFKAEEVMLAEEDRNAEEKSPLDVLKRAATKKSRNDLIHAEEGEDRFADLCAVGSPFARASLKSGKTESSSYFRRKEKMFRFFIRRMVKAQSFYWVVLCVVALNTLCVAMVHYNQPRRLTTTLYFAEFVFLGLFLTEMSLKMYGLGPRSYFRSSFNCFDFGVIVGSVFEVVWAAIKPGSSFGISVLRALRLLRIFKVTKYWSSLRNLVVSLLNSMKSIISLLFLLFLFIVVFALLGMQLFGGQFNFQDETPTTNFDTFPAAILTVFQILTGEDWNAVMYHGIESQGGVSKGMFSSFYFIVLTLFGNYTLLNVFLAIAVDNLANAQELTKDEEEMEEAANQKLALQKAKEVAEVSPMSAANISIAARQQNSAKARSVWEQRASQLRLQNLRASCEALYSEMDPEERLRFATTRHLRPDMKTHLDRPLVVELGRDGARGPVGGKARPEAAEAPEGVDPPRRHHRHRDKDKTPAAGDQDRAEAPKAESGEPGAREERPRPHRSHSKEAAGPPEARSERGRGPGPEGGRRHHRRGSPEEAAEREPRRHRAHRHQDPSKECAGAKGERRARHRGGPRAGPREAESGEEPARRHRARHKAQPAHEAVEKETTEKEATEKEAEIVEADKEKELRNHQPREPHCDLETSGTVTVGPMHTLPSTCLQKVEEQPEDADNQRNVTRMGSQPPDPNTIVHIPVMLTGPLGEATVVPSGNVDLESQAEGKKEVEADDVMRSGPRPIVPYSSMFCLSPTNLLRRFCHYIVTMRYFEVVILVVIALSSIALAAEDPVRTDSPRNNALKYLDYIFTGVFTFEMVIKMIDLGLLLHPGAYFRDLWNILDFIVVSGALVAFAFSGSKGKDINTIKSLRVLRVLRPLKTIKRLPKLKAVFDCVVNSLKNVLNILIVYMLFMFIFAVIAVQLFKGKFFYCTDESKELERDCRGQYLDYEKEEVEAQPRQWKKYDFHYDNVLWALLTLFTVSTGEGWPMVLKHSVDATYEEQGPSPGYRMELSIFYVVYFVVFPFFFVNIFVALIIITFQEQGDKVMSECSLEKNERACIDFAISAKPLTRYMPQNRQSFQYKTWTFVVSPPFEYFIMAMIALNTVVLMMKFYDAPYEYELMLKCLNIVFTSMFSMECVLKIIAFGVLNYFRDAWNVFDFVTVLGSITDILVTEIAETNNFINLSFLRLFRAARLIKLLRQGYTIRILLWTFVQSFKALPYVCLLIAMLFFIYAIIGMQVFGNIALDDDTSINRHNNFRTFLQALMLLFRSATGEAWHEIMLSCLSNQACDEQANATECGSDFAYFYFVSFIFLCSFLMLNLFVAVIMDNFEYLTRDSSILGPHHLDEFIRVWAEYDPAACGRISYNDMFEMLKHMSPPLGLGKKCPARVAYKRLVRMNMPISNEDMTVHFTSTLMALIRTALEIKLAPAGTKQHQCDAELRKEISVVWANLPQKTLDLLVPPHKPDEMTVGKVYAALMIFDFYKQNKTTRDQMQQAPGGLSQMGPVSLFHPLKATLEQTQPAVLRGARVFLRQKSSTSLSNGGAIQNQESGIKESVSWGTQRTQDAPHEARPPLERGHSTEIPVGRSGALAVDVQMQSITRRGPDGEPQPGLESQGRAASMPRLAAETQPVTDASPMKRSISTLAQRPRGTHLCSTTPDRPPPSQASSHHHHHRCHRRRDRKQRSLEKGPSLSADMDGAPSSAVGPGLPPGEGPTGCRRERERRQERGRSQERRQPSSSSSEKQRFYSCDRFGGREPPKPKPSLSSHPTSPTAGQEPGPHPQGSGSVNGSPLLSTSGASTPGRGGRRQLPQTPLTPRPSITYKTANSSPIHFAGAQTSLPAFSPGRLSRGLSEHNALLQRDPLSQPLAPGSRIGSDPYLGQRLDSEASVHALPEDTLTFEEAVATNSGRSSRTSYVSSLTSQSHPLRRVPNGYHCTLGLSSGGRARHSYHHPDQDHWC
# EXPERIMENT_SUMMARY: Inhibition of N-type calcium channel (VSCC) in IMR-32 at 10 uM
ENDPOINT_LABEL: IC50

| MOL_SMILES | ASSAYED_SYSTEM | EXPERIMENTAL_VALUE |
| --- | --- | --- |
| CC(C)Oc1cc(OCCc2ccc(C(=N)N)cc2)cc(OCc2ccccc2CCc2ccc(O)cc2)c1 | Voltage-dependent N-type calcium channel subunit alpha-1B (Homo sapiens, UniProt Q00975) | 3.3 µM |

Q: Please give the measured IC50 for this compound: CC(C)Oc1cc(OCCc2ccc(C(=N)N)cc2)cc(OCc2ccccc2CCc2cccc(O)c2)c1
Ans: 2.7 µM
